- system: AgSla1-D3
- protocol: SPOT peptide array binding signal intensity (averaged, normalized) (arbitrary units (background-subtracted, floor 0; scale differs between SH3 domains)); higher = stronger binding of the SH3 domain to the peptide
Would you mind labelling by SPOT peptide array binding signal intensity? At or over 10 is YES, under is NO.

binder: PIVPSSPAPPLPLSG
classLabel: NO
//
binder: KRKRRLPVSEDTNTK
classLabel: NO
//
binder: IHTRRPSSTSQYLIR
classLabel: YES
//
binder: VRVKKRPLIRPLNSS
classLabel: YES
//
binder: HGKRRAPLLLAKLDV
classLabel: YES

INPUT: Kindly determine if SPOT peptide array binding signal intensity recorded for RRRRRPHRIERPLSN is above or exactly 10.
OUTPUT: NO

INPUT: Kindly determine if SPOT peptide array binding signal intensity recorded for NIKVLLNPKLGKPVK is above or exactly 10.
OUTPUT: NO

INPUT: Kindly determine if SPOT peptide array binding signal intensity recorded for LEFRAILFIPKRAPF is above or exactly 10.
OUTPUT: NO
